- tgt: ITK (Homo sapiens (Human), UniProt Q08881)
- Sequence (Q08881 whole entry): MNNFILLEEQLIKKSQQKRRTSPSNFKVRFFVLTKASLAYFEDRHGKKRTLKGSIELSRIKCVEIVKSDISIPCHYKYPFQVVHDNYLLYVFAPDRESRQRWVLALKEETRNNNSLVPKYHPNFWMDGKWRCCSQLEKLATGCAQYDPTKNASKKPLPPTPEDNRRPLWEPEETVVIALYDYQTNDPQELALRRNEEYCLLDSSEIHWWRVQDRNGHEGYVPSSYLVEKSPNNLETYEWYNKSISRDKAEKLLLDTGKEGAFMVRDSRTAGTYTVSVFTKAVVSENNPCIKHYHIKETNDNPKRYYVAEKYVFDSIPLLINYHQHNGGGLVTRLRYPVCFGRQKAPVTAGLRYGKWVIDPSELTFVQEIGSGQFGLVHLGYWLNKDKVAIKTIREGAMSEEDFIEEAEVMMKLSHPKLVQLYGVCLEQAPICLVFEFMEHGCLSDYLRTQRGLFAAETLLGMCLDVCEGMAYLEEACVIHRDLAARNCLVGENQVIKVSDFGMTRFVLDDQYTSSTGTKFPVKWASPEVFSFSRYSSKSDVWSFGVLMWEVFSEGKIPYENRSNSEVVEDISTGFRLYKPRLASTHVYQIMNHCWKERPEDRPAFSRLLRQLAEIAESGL
- assay-procedure: ITK kinase inhibitory assay (ELISA)
- Type: biochemical
- run-parameters: ITK IC50 relative to BTK IC50
experimental-endpoint: Selectivity Ratio (BTK and ITK)

NC(=O)c1c(-c2ccc(Oc3ccccc3)cc2)nc2n1NCCC2C1CCN(C(=O)/C=C/C(F)(F)F)CC1 (stereo not shown) [Example 10] :: 1314

[P] NC(=O)c1c(-c2ccc(Oc3ccccc3)cc2)nc2n1NCCC2C1CN(C(=O)/C=C/C(F)(F)F)C1 (stereo not shown)
[Q] C=CC(=O)N1CCC(C2CCn3c2nc(-c2ccc(Oc4ccccc4)cc2)c3C(N)=O)CC1 (stereo not shown)
[R] C=CC(=O)N1CCC(C2CCNn3c2nc(-c2ccc(Oc4ccccc4)cc2)c3C(N)=O)CC1 (single isomer, unassigned) [1a (peak 1)]
[S] C=CC(=O)N1CCC(C2CCNn3c2nc(-c2ccc(Oc4ccccc4)cc2)c3C(N)=O)CC1 (stereo not shown) [Example 1]
Task item: Sort low-to-high on Selectivity Ratio (BTK and ITK), please. # the answer lists labels in the order requested
Reply: R, Q, P, S

* * *

- tgt: BMX (Homo sapiens (Human))
- Sequence (P51813 whole entry): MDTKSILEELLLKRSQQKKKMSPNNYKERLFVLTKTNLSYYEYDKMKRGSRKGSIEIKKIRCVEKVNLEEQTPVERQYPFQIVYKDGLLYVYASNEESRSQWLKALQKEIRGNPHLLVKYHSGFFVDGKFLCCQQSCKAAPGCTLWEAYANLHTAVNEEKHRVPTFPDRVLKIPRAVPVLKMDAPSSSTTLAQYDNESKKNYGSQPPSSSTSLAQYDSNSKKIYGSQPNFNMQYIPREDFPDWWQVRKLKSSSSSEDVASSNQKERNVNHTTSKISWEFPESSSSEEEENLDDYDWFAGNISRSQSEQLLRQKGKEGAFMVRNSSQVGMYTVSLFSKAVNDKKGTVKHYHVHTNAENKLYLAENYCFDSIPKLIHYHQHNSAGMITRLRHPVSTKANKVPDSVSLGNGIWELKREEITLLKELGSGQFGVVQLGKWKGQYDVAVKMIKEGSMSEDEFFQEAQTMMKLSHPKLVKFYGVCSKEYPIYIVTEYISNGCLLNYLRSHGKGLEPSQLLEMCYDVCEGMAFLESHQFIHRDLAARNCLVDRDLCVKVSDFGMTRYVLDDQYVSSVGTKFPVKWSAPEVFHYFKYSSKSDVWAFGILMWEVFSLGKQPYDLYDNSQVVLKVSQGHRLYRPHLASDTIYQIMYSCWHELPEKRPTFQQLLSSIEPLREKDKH
- assay-procedure: BMX kinase inhibitory assay (ELISA)
- Type: biochemical
- run-parameters: BMX IC50 relative to BTK IC50
experimental-endpoint: Selectivity Ratio (BTK and BMX)

Solved entries:
NC(=O)c1c(-c2ccc(Oc3ccccc3)cc2)nc2n1NCCC2C1CCN(C(=O)/C=C/C(F)(F)F)CC1 (single isomer, unassigned) [10a (peak 1)] :: 3.12
C=CC(=O)N1CCC(C2CCNn3c2nc(-c2ccc(Oc4ccccc4)cc2)c3C(N)=O)CC1 (stereo not shown) [Example 1] :: 5.80
C#CC(=O)N1CCC(C2CCNn3c2nc(-c2ccc(Oc4ccccc4)cc2)c3C(N)=O)CC1 (stereo not shown) [Example 11] :: 2.78

[P] NC(=O)c1c(-c2ccc(Oc3ccccc3)cc2)nc2n1NCCC2C1CN(C(=O)/C=C/C(F)(F)F)C1 (stereo not shown) [Example 20]
[Q] C=CC(=O)N1CCC(C2CCn3c2nc(-c2ccc(Oc4ccccc4)cc2)c3C(N)=O)CC1 (stereo not shown) [Example 26]
[R] C=CC(=O)N1CCC(C2CCNn3c2nc(-c2ccc(Oc4ccccc4)cc2)c3C(N)=O)CC1 (single isomer, unassigned) [1a (peak 1)]
Task item: Output the entries ranked by Selectivity Ratio (BTK and BMX) from maximum down to minimum. Give your ranking as a list of the labels in the requested order.
Reply: P, R, Q

* * *

- tgt: EGFR (Homo sapiens (Human))
- Sequence (P00533 25-1210): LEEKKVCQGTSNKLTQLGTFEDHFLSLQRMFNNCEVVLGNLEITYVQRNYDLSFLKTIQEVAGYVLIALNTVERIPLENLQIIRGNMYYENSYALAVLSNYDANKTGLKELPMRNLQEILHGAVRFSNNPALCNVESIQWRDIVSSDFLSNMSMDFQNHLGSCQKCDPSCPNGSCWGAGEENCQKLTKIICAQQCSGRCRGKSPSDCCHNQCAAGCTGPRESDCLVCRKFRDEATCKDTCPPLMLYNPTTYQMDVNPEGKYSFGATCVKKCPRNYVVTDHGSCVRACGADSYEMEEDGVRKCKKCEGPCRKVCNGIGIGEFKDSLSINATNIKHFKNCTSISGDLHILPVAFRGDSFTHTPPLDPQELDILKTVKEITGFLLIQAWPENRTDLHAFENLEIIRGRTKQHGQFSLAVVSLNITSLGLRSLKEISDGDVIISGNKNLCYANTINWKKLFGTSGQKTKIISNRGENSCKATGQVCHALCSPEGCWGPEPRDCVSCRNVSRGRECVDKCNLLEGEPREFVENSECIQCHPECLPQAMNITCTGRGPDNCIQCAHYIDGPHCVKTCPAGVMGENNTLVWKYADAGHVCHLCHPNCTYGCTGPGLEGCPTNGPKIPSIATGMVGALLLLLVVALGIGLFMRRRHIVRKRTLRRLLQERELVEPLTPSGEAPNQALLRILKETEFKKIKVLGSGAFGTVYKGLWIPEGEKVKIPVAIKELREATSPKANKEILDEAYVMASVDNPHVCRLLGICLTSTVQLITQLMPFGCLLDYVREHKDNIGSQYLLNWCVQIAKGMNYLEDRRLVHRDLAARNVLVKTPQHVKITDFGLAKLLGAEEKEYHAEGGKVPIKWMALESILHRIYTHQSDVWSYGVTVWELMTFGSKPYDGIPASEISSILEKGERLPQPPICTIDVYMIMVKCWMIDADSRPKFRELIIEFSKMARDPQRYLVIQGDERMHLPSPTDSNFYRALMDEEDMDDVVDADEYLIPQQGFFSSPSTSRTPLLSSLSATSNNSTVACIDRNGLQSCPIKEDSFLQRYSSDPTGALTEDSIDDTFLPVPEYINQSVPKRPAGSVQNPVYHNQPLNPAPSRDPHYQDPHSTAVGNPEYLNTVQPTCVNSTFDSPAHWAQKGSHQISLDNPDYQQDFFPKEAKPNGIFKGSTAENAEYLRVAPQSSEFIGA
experimental-endpoint: IC50 (nM)

C=CC(=O)N1CCC(C2CCNn3c2nc(-c2ccc(Oc4ccccc4)cc2)c3C(N)=O)CC1 (single isomer, unassigned) [1b (peak 2)] :: 170

[1] NC(=O)c1c(-c2ccc(Oc3ccccc3)cc2)nc2n1NCCC2C1CCN(C(=O)/C=C/C(F)(F)F)CC1 (stereo not drawn) [Example 10]
[2] C#CC(=O)N1CCC(C2CCNn3c2nc(-c2ccc(Oc4ccccc4)cc2)c3C(N)=O)CC1 (stereo not drawn) [Example 11]
Task item: Of 1 versus 2 , which is the one with smaller reported IC50? API: response body contains the label of the selected item.
Reply: 2
(2: 28.1 nM, 1: 1930 nM)
